target-system: T1, human ROR2 expressed on the cell surface (human, UniProt Q01974 34-943)
T1 construct: Endogenous ROR2 of human tumour cell lines; also called cell surface ROR2; ROR2 on tumour cell lines
T1 sequence (Q01974 34-943 limits assumed): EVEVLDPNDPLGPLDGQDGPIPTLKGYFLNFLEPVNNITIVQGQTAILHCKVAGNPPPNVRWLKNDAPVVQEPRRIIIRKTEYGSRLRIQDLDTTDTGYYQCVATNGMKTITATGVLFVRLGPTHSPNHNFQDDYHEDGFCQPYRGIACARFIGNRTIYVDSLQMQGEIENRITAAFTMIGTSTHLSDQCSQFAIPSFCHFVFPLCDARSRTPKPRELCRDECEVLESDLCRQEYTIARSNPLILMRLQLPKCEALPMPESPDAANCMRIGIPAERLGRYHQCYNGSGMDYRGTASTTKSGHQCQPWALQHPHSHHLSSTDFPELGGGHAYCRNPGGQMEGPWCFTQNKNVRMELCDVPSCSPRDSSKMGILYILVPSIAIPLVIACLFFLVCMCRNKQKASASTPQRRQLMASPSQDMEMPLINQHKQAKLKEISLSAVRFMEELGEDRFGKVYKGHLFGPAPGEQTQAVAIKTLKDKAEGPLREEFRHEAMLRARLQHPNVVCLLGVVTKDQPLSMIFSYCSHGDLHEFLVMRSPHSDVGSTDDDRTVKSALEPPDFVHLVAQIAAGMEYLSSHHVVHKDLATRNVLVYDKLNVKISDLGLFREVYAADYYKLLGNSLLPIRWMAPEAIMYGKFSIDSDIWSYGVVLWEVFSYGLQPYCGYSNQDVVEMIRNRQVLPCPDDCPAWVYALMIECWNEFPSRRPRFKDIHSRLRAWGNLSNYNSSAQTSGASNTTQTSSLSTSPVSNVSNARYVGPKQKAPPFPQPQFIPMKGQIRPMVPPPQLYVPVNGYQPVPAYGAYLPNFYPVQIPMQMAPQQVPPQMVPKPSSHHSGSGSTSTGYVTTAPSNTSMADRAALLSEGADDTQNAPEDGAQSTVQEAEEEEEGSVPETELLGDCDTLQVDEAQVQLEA
assay-info: flow cytometry, U2OS cells (osteosarcoma)
Design: unit not given here
readout-label: binding intensity
Answer using only a numeral; do not append any unit.

The following binders have reported results that may help.
binder	readout-value
ROR2-23 full length human IgG1 antibody (antibody, V domains shown, The light chain of clone 023 is labelled kappa; also called clone #23; clone #023 IgG1) VH: EVQLVQSGAEVKKPGESLKISCQGSGYRFSKYWIGWVRQMPGKGLEWMGIIYPGDSDTRYSPSFQGQVTISADKSISTAYLQWSSLKASDTAMYYCARSFSSFIYDYWGQGTLVTVSS VL: ETTLTQSPGTLSVSPGERATLSCRASQSVSSNLAWYQQKRGQAPRLLIYGASTRATGIPVRFSGSGSGTEFTLTISRLEPEDFAVYYCQQYGRSPLTFGGGTKVDIKR	52
ROR2-90 full length human IgG1 antibody (antibody, V domains shown, also called clone #90; antibody #90) VH: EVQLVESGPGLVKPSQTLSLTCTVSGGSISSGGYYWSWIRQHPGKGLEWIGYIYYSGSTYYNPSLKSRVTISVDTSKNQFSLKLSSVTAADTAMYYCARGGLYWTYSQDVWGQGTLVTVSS VL: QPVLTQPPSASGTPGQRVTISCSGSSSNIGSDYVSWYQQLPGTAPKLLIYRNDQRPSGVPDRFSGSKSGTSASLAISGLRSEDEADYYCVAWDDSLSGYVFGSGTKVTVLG	94
ROR2-240 full length human IgG1 antibody (antibody, V domains shown, also called clone #240 IgG1) VH: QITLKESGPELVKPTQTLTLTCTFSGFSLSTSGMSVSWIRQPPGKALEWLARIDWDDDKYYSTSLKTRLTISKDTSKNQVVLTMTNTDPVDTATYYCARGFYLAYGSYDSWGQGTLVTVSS VL: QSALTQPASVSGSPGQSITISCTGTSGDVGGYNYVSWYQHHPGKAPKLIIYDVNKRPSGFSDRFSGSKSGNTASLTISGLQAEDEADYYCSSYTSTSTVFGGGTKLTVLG	39
ROR2-241 full length human IgG1 antibody (antibody, V domains shown) VH: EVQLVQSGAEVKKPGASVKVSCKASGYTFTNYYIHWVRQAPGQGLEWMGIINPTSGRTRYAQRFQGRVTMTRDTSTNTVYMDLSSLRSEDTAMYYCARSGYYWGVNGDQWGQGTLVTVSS VL: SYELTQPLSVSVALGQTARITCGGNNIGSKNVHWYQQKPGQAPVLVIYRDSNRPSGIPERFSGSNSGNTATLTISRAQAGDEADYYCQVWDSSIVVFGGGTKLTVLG	60

Next up:
[in] Can you share its binding intensity? I mean this binder: ROR2-27 full length human IgG1 antibody (antibody, V domains shown, also called clone #27; clone #027 IgG1) VH: QVQLVESGAEVKKPGESLKISCKASGYSFSNYWIGWVRQMPGKGLEWMGIIYPDDSDTRYSPSFQGQVTISADKSISTAYLQWYSLKVADTAKYYCVRPRGAFDIWGQGTTVTVSS VL: QSVLTQPPSVSGAPGQRVTISCTGSSSNIGAGHAVHWYQQLPGTAPKLLIYDNANRPSGVPDRFSGSQSGTSASLAITGLQTGDEADYYCGTWDDSPSAYVFGTGTKVTVLG
[out] 29
